- Tested on: Caenorhabditis elegans
- Type: in vivo
- RECORDED CONDITIONS: 1 μM in aqueous medium each day, over lifespan
MEASURED ENDPOINT: increase in fecundity (number of offspring)

* IEPVFT | 79%
* MKPLTGKVKEFNNI [SEQ ID NO: 9] | > 40%
* LQPAHV | 71%
* MKPLTG | 50%
